Assay: yeast display, Sf9 membrane polyspecificity reagent, FACS + sequencing; frameworks hold sequencing errors

SEQUENCE_DATA	polyreactivity (PSR sort gate)
QVQLVESGGGLVQAGGSLRLSCAASGRTFVRNAMGWYRQAPGKERELVAAISKSGGITYYADSVKGRFTISRDTAKNTVYLQMNSLKPEDTAVYYCAKRTSYYRSGWSHYGYWGQGTQVTVSS	high polyreactivity
QVQLVESGGGLVQAGGSLRLSCAASGSTFSQNAMGWYRQAPGKERELVAVISSSGGRTNYADSVKGRFTISRDNAKNTVYLQMNSLKPEDTSVYYCAKRLRVLYYYWGQGTQVTVSS	high polyreactivity
QVQLVESGGGLVQAGGSHRLSCAASGSTFVLYALGWYRQAPGKERELVAVISWSGGSTYYADSVKGRFTISRDNAKNTVYLQMNSLKPEDTAVYYCAATGWSSFYYRFDYWGQGTQVTVSS	low polyreactivity
QVQLVESGGGLVQAGGSLRLSCAASGSTFWAYVMGWYRQAPGKERELVAAISKSGVRTHYADSVKGRFTISRDNAKNTVYLQMNSLKPEDNAVYYCAAGGVGNLDDYWGQGTQVTVSS	high polyreactivity
QVQLVESGGGLVQAGGSLRLSCAAYGRILYYYAMGWYRQAPGKETELVAAITETSGSTYYADSVKGRFTISRDNAKTTVYLQMNSLHPEDTAVYYCAASSTRGHYTAYDYWGQGTHVTVSS	low polyreactivity
QVQLVESGGGLVQAGGSLRLSCAASGRTFRLYAMGWYRQAPGKERELVAAISWRGGRTYYADSVKGRFTISRDNAKNTVYLQMNSLKPEDTAVYYCAAEDGYGQYDYWGQGTQVTVSS	high polyreactivity
QVQLVESGGGLVQAGGSLRLSCAASGSTLYWNAMGWYRQAPGKERELVAGISIGGRTNYADSVKGRFTISRDNAKNTVYLQMNSLKPEDTAVYYCNAENTYLGSRYRPYNYWGQGTQVTVSS	low polyreactivity
QVQLVESGGGLVQAGGSLRLSCAASGSTLISYAMGSYRQAPGKERELDAAITYNGGTTHYADSVKGRLTISRDNAKNSVYLQLKSLKPEDTAVYYCAKAQGHVRVSRGLQGGRYDYWGQGTQVTVSS	low polyreactivity
QVQLVESGGGLVQAGGSLRLSCAASGSIFAKNAMGWYRQAPGKERELVAAISRGGNSYYADSVKGRFTISRDNAKNPVYFPMNSLTPEDTAVYYCAADYYWYVWEYPTYWYEYWGQGTQVTVSS	high polyreactivity
QDQHVESGGCLVQAGGSLRLSCAASGFTFYANAMGWYRQAPGKERELVAAISRGVSTTYADSVKGRFTISRDNSKNTVYLQMNSLTPEDTAVYYCAADGKVIAQGYDYWGQGTQVTVST	low polyreactivity
QVQLVESGGGLVQAGGSLRLSCAASGITFVRYAMGWYRQAPGKERELVAAISSGGRTIYADSVKGRFTISRDHANNTVFVHMNSLKPEDTAVYYCSKRRARSGQDYDYWGQGTQVTVSS	low polyreactivity
